Target: Homeobox protein Hox-A13 (Mus musculus) (UniProt Q62424)
Sequence (Q62424 whole entry, looked up): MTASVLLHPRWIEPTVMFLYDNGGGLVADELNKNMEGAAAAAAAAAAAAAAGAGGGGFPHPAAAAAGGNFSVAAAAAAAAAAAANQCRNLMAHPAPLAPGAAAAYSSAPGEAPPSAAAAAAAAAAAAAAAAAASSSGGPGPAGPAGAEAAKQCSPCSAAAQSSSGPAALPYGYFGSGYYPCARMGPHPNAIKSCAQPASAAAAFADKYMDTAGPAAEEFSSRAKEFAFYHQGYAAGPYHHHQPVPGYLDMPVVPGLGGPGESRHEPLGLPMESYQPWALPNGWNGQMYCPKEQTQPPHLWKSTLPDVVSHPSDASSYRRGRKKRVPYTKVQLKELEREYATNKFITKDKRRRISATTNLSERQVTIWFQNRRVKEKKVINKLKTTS
Assay: inhibitors of HoxA13-DNA binding, primary screen, biochemical, fluorescence polarization, labeled oligonucleotide (AID 1185)
Details: 15 min, higher = more signal, called active from +8 up or from −8 down
The following compounds are shown together with reported z-score values.
Answer with the value's number alone.

Previously resolved entries follow.
C=CCOC(=O)[C@H]1[C@@H]2C(=O)O[C@@H](c3ccccc3)[C@@H](c3ccccc3)N2[C@@H](c2ccc(OCCOC(=O)[C@H]3C[C@H]4C(=O)NCC(=O)N4[C@H]3c3ccc(O)cc3)cc2)[C@]12C(=O)Nc1ccccc12 : -0.844
O=C(N1CCOCC1)[C@]1(CCS(=O)(=O)c2ccccc2)N=C(c2ccc(OCCCO)cc2)O[C@@H]1c1ccccc1 : -4.54

I'm curious: which z-score was measured for COCCOC(=O)N1C(=O)[C@@]2(c3cc(C#CCNC(N)=O)ccc31)[C@H](c1ccc(O)cc1)N1[C@H](c3ccccc3)[C@H](c3ccccc3)OC(=O)[C@H]1[C@@H]2C(=O)N1CCc2cc(OC)c(OC)cc2C1 tested on Homeobox protein Hox-A13 (Mus musculus) (UniProt Q62424)?
-1.73

I'm curious: which z-score was measured for CN1C2C=C(c3ccc(CO)cc3)C(C3C(=O)N(C(N)=O)C(=O)C32)C1C1CC1 (stereo not drawn) tested on Homeobox protein Hox-A13 (Mus musculus) (UniProt Q62424)?
-6.63

I'm curious: which z-score was measured for C=CCNC(=O)[C@H]1[C@@H]2C(=O)O[C@@H](c3ccccc3)[C@@H](c3ccccc3)N2[C@@H](c2ccc(O)cc2)[C@]12C(=O)Nc1ccc(C#CCC(C(=O)OC)C(=O)OC)cc12 tested on Homeobox protein Hox-A13 (Mus musculus) (UniProt Q62424)?
-2.88

I'm curious: which z-score was measured for CC(C)Cc1ccc(CN2CC[C@@H](NC(=O)c3ccccc3)C2)cc1 tested on Homeobox protein Hox-A13 (Mus musculus) (UniProt Q62424)?
-1.52

I'm curious: which z-score was measured for CC(C)N1C(=O)[C@@]2(Cc3ccccc31)c1ccccc1C(=O)N(Cc1ccccc1C(F)(F)F)[C@H]2c1ccc(CO)cc1 tested on Homeobox protein Hox-A13 (Mus musculus) (UniProt Q62424)?
-0.791

I'm curious: which z-score was measured for CC[C@@H](O[Si](C#C[Si](C(C)C)(C(C)C)C(C)C)(C(C)C)C(C)C)c1cn([C@H](CO)Cc2ccccc2)nn1 tested on Homeobox protein Hox-A13 (Mus musculus) (UniProt Q62424)?
-1.31

I'm curious: which z-score was measured for [N-]=[N+]=NCc1ccccc1[C@H]1OC(c2ccc(OCCCO)cc2)=N[C@@]1(CCS(=O)(=O)c1ccccc1)C(=O)O tested on Homeobox protein Hox-A13 (Mus musculus) (UniProt Q62424)?
-5.36

I'm curious: which z-score was measured for O=C(O)C1=CC[C@H]2C(=O)N(c3ccccc3)C(=O)[C@@H]12 tested on Homeobox protein Hox-A13 (Mus musculus) (UniProt Q62424)?
-3.04

I'm curious: which z-score was measured for COc1ccc([Si](C)(C)[C@H]2[C@H](CC(=O)N(CCO)Cc3ccccc3)O[C@@]3(C(=O)N(Cc4cccc(N5CCCCC5=O)c4)c4ccccc43)[C@@H]2C)cc1 tested on Homeobox protein Hox-A13 (Mus musculus) (UniProt Q62424)?
-0.38

I'm curious: which z-score was measured for C=C1C(=O)C=C2CN(C(=O)c3ccccc3)[C@@](Cc3ccc(F)cc3)(C(=O)OC)[C@@H]12 tested on Homeobox protein Hox-A13 (Mus musculus) (UniProt Q62424)?
-4.76

I'm curious: which z-score was measured for COc1cc(Cc2cc3c(c(-c4ccccc4)n2)[Si](C(C)C)(C(C)C)OC3)cc(OC)c1OC tested on Homeobox protein Hox-A13 (Mus musculus) (UniProt Q62424)?
-0.497

I'm curious: which z-score was measured for COc1ccc([Si](C)(C)[C@@H]2[C@@H](CC(=O)N(CCO)Cc3ccccc3)O[C@]3(C(=O)N(Cc4cccc(I)c4)c4ccccc43)[C@H]2C)cc1 tested on Homeobox protein Hox-A13 (Mus musculus) (UniProt Q62424)?
-1.79

I'm curious: which z-score was measured for COc1ccc(-c2cc3c(c(CCc4ccccc4)n2)[Si](C(C)C)(C(C)C)O[C@H]3c2ccccc2)cn1 tested on Homeobox protein Hox-A13 (Mus musculus) (UniProt Q62424)?
-1.35

I'm curious: which z-score was measured for CCCCC(=C=CC[C@@H](O)c1ccccc1OCCO)C[C@@H](O)c1ccccn1 tested on Homeobox protein Hox-A13 (Mus musculus) (UniProt Q62424)?
-5.1

I'm curious: which z-score was measured for CCOC(=O)C[C@H]1[C@H](OC(=O)c2ccc(-c3ccccc3)cc2)[C@@H](NC(=O)c2ccc(-c3ccccc3)cc2)c2cc(OCCCO)ccc2N1C(=O)c1ccccc1 tested on Homeobox protein Hox-A13 (Mus musculus) (UniProt Q62424)?
-1.22

I'm curious: which z-score was measured for CCCCCN1CC=CC23O[C@@H]4/C=C\CCCOC(=O)C4[C@H]2C(=O)N(CCCCCO)[C@@H]3C1=O (stereo partly drawn) tested on Homeobox protein Hox-A13 (Mus musculus) (UniProt Q62424)?
-4.75

I'm curious: which z-score was measured for COC(=O)[C@@]1(Cc2ccccc2)[C@H]2c3cc(C(=O)N(C)C)n(Cc4nc5ccccc5[nH]4)c3C[C@H]2CN1C(=O)c1ccccc1 tested on Homeobox protein Hox-A13 (Mus musculus) (UniProt Q62424)?
-1.6

I'm curious: which z-score was measured for CC(C)N1C(=O)[C@@]2(Cc3ccccc31)c1ccccc1C(=O)N(Cc1ccccc1)[C@H]2c1ccc(CO)cc1 tested on Homeobox protein Hox-A13 (Mus musculus) (UniProt Q62424)?
-0.075

I'm curious: which z-score was measured for [N-]=[N+]=Nc1ccccc1C[C@@]1(C(=O)NCc2ccccc2)N=C(c2ccc(OCCCO)cc2)O[C@@H]1c1ccccc1 tested on Homeobox protein Hox-A13 (Mus musculus) (UniProt Q62424)?
-2.4

I'm curious: which z-score was measured for CC(C)(C)OC(=O)CC[C@@]1(C(N)=O)N=C(c2ccc(OCCCO)cc2)O[C@@H]1c1ccccc1CN=[N+]=[N-] tested on Homeobox protein Hox-A13 (Mus musculus) (UniProt Q62424)?
-4.71

I'm curious: which z-score was measured for COCCOC(=O)N1C(=O)[C@@]2(c3cc(C#CCCO)ccc31)[C@H](C(=O)N1CCN(c3ncccn3)CC1)[C@H]1C(=O)O[C@H](c3ccccc3)[C@H](c3ccccc3)N1[C@@H]2c1ccc(OCCO)cc1 tested on Homeobox protein Hox-A13 (Mus musculus) (UniProt Q62424)?
0.211

---

Assay: splicing luciferase reporter signal modulators, primary screen, spliceosome inhibition project, cell-based, HEK293, splice +/- reporter (AID 1101);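 note: HEK293 cells carrying a splicing-competent luciferase reporter gene; test concentration not given here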
Details: luminescence, 24 h, higher = more signal, called active from +8 up or from −8 down
Activity calls are given as the source filed them.
The following molecules are shown together with reported z-score values.

Previously resolved entries follow.
COc1c(C)cc(-c2cc3c(c(CCc4ccccc4)n2)[Si](C(C)C)(C(C)C)O[C@H]3c2ccccc2)cc1C : -1.48 (inactive)
COC(=O)[C@]1(Cc2ccccc2N=[N+]=[N-])N=C(c2ccc(OCCCO)cc2)O[C@@H]1c1ccccc1CN=[N+]=[N-] : 2.71 (inactive)
COC(=O)[C@H](Cc1ccccc1)N1CC(C)(OC)O[C@@H](Cc2ccccc2)[C@H]1/C=C/C1CC1 (some centres undefined) : -0.579 (inactive)
COCCCNC(=O)[C@@]1(Cc2ccccc2I)c2ccccc2C(=O)N(Cc2ccccc2C(F)(F)F)[C@H]1c1ccc(CO)cc1 : 0.544 (inactive)
COc1ccc(NN2C(C(O)c3ccc(F)cc3)C=CC3C(=O)N(C4CCCCC4)C(=O)C32)cc1 (centres undefined) : -0.794 (inactive)

Fill blank: measured z-score of the molecule C=C(COC)C(=O)CC[C@H](OC(C)=O)c1ccc(CO)o1 is ____.
-1.35 (inactive)

Fill blank: measured z-score of the molecule CN(C)C(=O)[C@]1(CCS(=O)(=O)c2ccccc2)N=C(c2ccc(OCCCO)cc2)O[C@@H]1c1ccccc1CN=[N+]=[N-] is ____.
-0.153 (inactive)

---

The following compounds are shown together with reported z-score values.
Test: basal S. cerevisiae growth modulation, no modifier, primary screen, OD600, strain BY4716, 24 h, basal condition (AID 1173)
Conditions: OD600, 24 h, higher = more signal, called active from +8 up or from −8 down
Answer with the value's number alone.

CCCCN1CC=CC23O[C@@H]4C=CCCOC(=O)C4[C@H]2C(=O)N(CCO)[C@@H]3C1=O (some centres undefined) : -0.0816
CC[C@H]1C2=C3C(CC[C@H]4C(OCc5ccc(F)cc5C(F)(F)F)OC[C@](C)([C@@H]34)N(C(=O)OC(C)(C)C)C2)C(COC(C)=O)C1COC(C)=O (some centres undefined) : 0.249
COCCCNC(=O)[C@@]1(CCC(=O)OC(C)(C)C)N=C(c2ccc(OCCCO)cc2)O[C@H]1c1ccccc1 : 1.12

Fill blank: measured z-score of the compound CCOC(=O)C1=C[C@@H](C(C)(C)C)N(S(=O)(=O)c2ccc(C)cc2)[C@H]1c1ccc(OC)cc1 is ____.
1.9
